SUBJECT_OF_TEST: recombinant human KRAS wild type (SOS1-mediated nucleotide exchange) (Homo sapiens (Human))
Sequence (P01116-2 other isoform, or with tags, fused parts or gaps): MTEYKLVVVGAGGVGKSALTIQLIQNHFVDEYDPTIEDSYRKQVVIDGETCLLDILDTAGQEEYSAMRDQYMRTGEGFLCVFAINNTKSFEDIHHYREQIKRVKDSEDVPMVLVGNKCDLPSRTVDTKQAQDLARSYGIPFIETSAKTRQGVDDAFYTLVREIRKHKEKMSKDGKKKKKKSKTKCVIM
PROCEDURE_DETAILS: KRAS biochemical assay, BODIPY-GDP exchange TR-FRET (WT-GDP HTRF)
PROPERTY_LABEL: IC50 (pM)

Illustrative cases are given below, each with its answer.
Cc1c(F)c(N)nc(-c2nc3c4c(nc(OC[C@@]56CCCN5C[C@H](F)C6)nc4c2F)N([C@H](C)c2cncnc2N)CCO3)c1C(F)(F)F: 1450
C#Cc1cccc2cc(N)cc(-c3nc4c5c(nc(OC[C@@]67CCCN6C[C@H](F)C7)nc5c3F)N([C@H](C)c3nccnc3N)CCO4)c12: 150
Cc1c(F)c(N)nc(-c2nc3c4c(nc(OC[C@@]56CCCN5C[C@H](F)C6)nc4c2F)N([C@H](C)c2cc(F)cnc2N)CCO3)c1C(F)(F)F: 741
Cc1c(F)c(N)cc(-c2nc3c4c(nc(OC[C@@]56CCCN5C[C@H](F)C6)nc4c2F)N([C@H](C)c2cccnc2N)CCO3)c1C(F)(F)F: 52.9
Cc1c(F)c(N)c(F)c(-c2nc3c4c(nc(OC[C@@]56CCCN5C[C@H](F)C6)nc4c2Cl)N([C@H](C)c2cccnc2N)CCO3)c1C(F)(F)F (atropisomer, axis not shown; (aS)) [Example 629a]: 178

a = Cc1cc(N)nc(-c2nc3c4c(nc(OC[C@@]56CCCN5C[C@H](F)C6)nc4c2F)N([C@H](C)c2cccnc2N)CCO3)c1C(F)(F)F
b = C#Cc1cccc2cc(O)cc(-c3nc4c5c(nc(OC[C@@]67CCCN6C[C@H](F)C7)nc5c3F)N([C@H](C)c3cccnc3N)CCO4)c12
Response body: label of entry with the larger IC50; valid values a , b . Please reply using the label of the selected record.
a

P = Cc1nc(N)nc(-c2nc3c4c(nc(OC[C@@]56CCCN5C[C@H](F)C6)nc4c2F)N([C@H](C)c2cccnc2N)CCO3)c1C(F)(F)F
Q = Cc1nc(N)c(Cl)c(-c2nc3c4c(nc(OC[C@@]56CCCN5C[C@H](F)C6)nc4c2F)N([C@H](C)c2cccnc2N)CCO3)c1C(F)(F)F (single isomer, unassigned) [Example 601a]
Would you mind telling me which has the lower recorded IC50 between P and Q ? Please reply using the label of the selected record.
Q

I = Cc1c(F)c(N)c(F)c(-c2nc3c4c(nc(OC[C@@]56CCCN5C[C@H](F)C6)nc4c2Cl)N([C@H](C)c2cccnc2N)CCO3)c1C(F)(F)F (single isomer, unassigned) [Example 629b]
II = Cc1cc(N)nc(-c2nc3c4c(nc(OC[C@@]56CCCN5C[C@H](F)C6)nc4c2F)N(C(C)c2scnc2N)CCO3)c1C(F)(F)F (stereo partly shown)
III = Cc1c(F)c(N)nc(-c2nc3c4c(nc(OC[C@@]56CCCN5C[C@H](F)C6)nc4c2F)N([C@H](C)c2cccnc2N)CCO3)c1C(F)(F)F
Place the items in sequence of falling IC50. Provide the ranking by listing each label in its place in the requested order.
I, II, III
(I: 12300 pM, II: 690 pM, III: 225 pM)

a = Cc1c(F)c(N)cc(-c2nc3c4c(nc(OC[C@@]56CCCN5C[C@]5(CC5(F)F)C6)nc4c2F)N([C@H](C)c2cccnc2N)CCO3)c1C(F)(F)F
b = C[C@H](c1cccnc1N)N1CCOc2nc(-c3nc(N)cc4ccccc34)c(F)c3nc(OC[C@@]45CCCN4C[C@H](F)C5)nc1c23
c = C[C@H](c1cccnc1N)N1CCOc2nc(-c3cc(N)nc4ccccc34)c(F)c3nc(OC[C@@]45CCCN4C[C@H](F)C5)nc1c23
Rank ascending by IC50. Provide the ranking by listing each label in its place in the requested order.
a, b, c
(a: 419 pM, b: 3430 pM, c: 22600 pM)

a = Cc1cc(N)nc(-c2nc3c4c(nc(OC[C@@]56CCCN5C[C@H](F)C6)nc4c2Cl)N([C@H](C)c2cccnc2N)CCO3)c1C(F)(F)F
b = Cc1nc(N)c(Cl)c(-c2nc3c4c(nc(OC[C@@]56CCCN5C[C@H](F)C6)nc4c2F)N([C@H](C)c2cccnc2N)CCO3)c1C(F)(F)F (single isomer, unassigned) [Example 601b]
c = C#Cc1c(F)ccc2cc(O)cc(-c3nc4c5c(nc(OC[C@@]67CCCN6C[C@H](F)C7)nc5c3F)N([C@H](C)c3cccnc3N)CCO4)c12
Place the items in sequence of falling IC50. Provide the ranking by listing each label in its place in the requested order.
b, a, c

* * *

Tested on: HPAC cells
PROCEDURE_DETAILS: HPAC 3D proliferation assay (CellTiter-Glo)
Type: cell-based
CONDITION_INFO: 3D culture, 7 days, read-out: HPAC CTG IC50
pIC50 values by entry
Reminder that pIC50 means the negative base-10 logarithm of the concentration expressed in mol/L.

Cc1cc(N)c(Cl)c(-c2nc3c4c(nc(OC[C@@]56CCCN5C[C@H](F)C6)nc4c2F)N([C@H](C)c2cccnc2N)CCO3)c1C(F)(F)F (single isomer, unassigned) [Example 21b]: 8.35

Turning to the following compound.
Give the measured pIC50 of Cc1cc(N)c(Cl)c(-c2nc3c4c(nc(OC[C@@]56CCCN5C[C@H](F)C6)nc4c2F)N([C@H](C)c2cccnc2N)CCO3)c1C(F)(F)F (single isomer, unassigned) [Example 21a] .
6.99

* * *

SUBJECT_OF_TEST: recombinant human KRAS wild type (SOS1-mediated nucleotide exchange) (Homo sapiens (Human))
PROCEDURE_DETAILS: KRAS biochemical assay, BODIPY-GDP exchange TR-FRET (WT-GDP HTRF)
pIC50: −log10 of the molar value.
PROPERTY_LABEL: pIC50

Illustrative cases are given below, each with its answer.
Cc1cc(N)cc(-c2nc3c4c(nc(OC[C@@]56CCCN5C[C@H](F)C6)nc4c2F)N([C@H](C)c2cccnc2N)CCO3)c1C(F)(F)F: 9.98
Cc1nc(N)cc(-c2nc3c4c(nc(OC[C@@]56CCCN5C[C@H](F)C6)nc4c2Cl)N([C@H](C)c2cccnc2N)CCO3)c1C(F)(F)F: 9.17
C[C@H](c1cccnc1N)N1CCOc2nc(-c3c(C(F)(F)F)ccc(N)c3Cl)c(F)c3nc(OC[C@@]45CCCN4C[C@H](F)C5)nc1c23 (single isomer, unassigned) [Example 622b]: 8.26

P = Cc1c(F)c(N)cc(-c2nc3c4c(nc(OC[C@@]56CCCN5C[C@H](F)C6)nc4c2F)N([C@H](C)c2cncnc2N)CCO3)c1C(F)(F)F
Q = Cc1c(F)c(N)nc(-c2nc3c4c(nc(OC[C@@]56CCCN5C[C@H](F)C6)nc4c2Cl)N([C@H](C)c2cccnc2N)CCO3)c1C(F)(F)F
Would you mind telling me which has the lower recorded pIC50 between P and Q ? Please reply using the label of the selected record.
Q
(Q: 9.13, P: 9.51)

P = Cc1nc(N)cc(-c2nc3c4c(nc(OC[C@@]56CCCN5C[C@H](F)C6)nc4c2F)N([C@H](C)c2cccnc2N)CCO3)c1C(F)(F)F
Q = C[C@H](c1cccnc1N)N1CCOc2nc(-c3cc(N)ncc3C(F)(F)F)c(F)c3nc(OC[C@@]45CCCN4C[C@H](F)C5)nc1c23
Response body: label of entry with the larger pIC50; valid values P , Q . Please reply using the label of the selected record.
P
(P: 9.36, Q: 8.47)

A = C[C@H](c1cccnc1N)N1CCOc2nc(-c3cncc4cccc(Cl)c34)c(F)c3nc(OC[C@@]45CCCN4C[C@H](F)C5)nc1c23
B = C#Cc1cccc2cncc(-c3nc4c5c(nc(OC[C@@]67CCCN6C[C@H](F)C7)nc5c3F)N([C@H](C)c3cccnc3N)CCO4)c12
C = Cc1cc(N)c(Cl)c(-c2nc3c4c(nc(OC[C@@]56CCCN5C[C@H](F)C6)nc4c2F)N([C@H](C)c2cccnc2N)CCO3)c1C(F)(F)F (single isomer, unassigned) [Example 21b]
Rank ascending by pIC50. Provide the ranking by listing each label in its place in the requested order.
A, B, C
(A: 8.16, B: 9.48, C: 10.15)

1 = C[C@H](c1cccnc1N)N1CCOc2nc(-c3cc(O)cc4ccccc34)c(F)c3nc(OC[C@@]45CCCN4C[C@H](F)C5)nc1c23
2 = Cc1nc(N)cc(-c2nc3c4c(nc(OC[C@@H]5CCCN5C)nc4c2F)N([C@H](C)c2cccnc2N)CCO3)c1C(F)(F)F
Response body: label of entry with the larger pIC50; valid values 1 , 2 . Please reply using the label of the selected record.
1
(1: 9.59, 2: 8.33)
